Sourced from patent US7074789B2

Biological target: Lck (Homo sapiens, UniProt P06239)
Construct: Kinases are expressed as either kinase domains or full length constructs; made in house
Sequence (P06239 whole entry, species assumed, the tested form may be a part): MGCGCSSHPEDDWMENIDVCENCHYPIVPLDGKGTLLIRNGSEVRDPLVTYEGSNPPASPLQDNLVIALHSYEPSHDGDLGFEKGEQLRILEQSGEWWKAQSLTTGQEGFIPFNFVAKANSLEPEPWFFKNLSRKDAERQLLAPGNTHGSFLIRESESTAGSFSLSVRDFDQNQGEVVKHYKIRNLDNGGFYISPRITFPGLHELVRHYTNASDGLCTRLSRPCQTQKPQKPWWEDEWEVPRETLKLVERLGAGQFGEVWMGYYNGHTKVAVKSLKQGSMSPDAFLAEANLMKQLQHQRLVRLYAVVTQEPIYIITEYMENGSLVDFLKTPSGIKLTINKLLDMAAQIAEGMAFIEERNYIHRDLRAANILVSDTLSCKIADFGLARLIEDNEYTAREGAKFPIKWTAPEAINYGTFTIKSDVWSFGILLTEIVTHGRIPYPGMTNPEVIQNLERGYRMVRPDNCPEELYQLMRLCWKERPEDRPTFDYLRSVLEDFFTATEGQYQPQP
Assay: Kinase inhibition assay (33P transfer), Lck
Type: biochemical
Conditions: read-out: Lck-1
experimentalReadout: IC50

Previously resolved entries follow.
Give its IC50 value. Item: COc1cc(Nc2ncnc(-n3c(NCc4ccccn4)nc4ccccc43)n2)cc(OCCN2CCOCC2)c1OC [Compound 507]
0.685 to 4.11 µM

Give its IC50 value. Item: CC(C)(C)c1cc(Nc2ncnc(Nc3ccc(C(N)=O)cc3)n2)[nH]n1 [Compound 502]
1.14 to 6.81 µM

Give its IC50 value. Item: COc1ccc(Nc2ncnc(-n3c(=O)[nH]c4ccccc43)n2)cn1 [Compound 489]
> 13.4 µM

Give its IC50 value. Item: Cc1cccc(Nc2ncnc(N3CCCc4ccc(C(F)(F)F)cc43)n2)c1 [Compound 582]
6.23 to 9.08 µM

Below is a list of compounds. For each, state its recorded IC50.
1. COc1ccc(-c2cn[nH]c2Nc2ncnc(Nc3cc(OC)c(OC)c(OC)c3)n2)cc1OC [Compound 470]
2. COc1cc(Nc2ncnc(-c3c(O)[nH]c4ccc(Cl)cc34)n2)cc(OC)c1OC [Compound 517]
3. COc1cc(Nc2ncnc(-n3c(Nc4ccc(N(C)C)cc4)nc4ccccc43)n2)cc(OC)c1OC [Compound 1051]
4. COc1cc(Nc2ncnc(-n3c(NCCc4cccnc4)nc4ccccc43)n2)cc(OC)c1OC [Compound 947]
5. COc1cc(Nc2ncnc(Nc3ccc(NC(C)=O)c(C(F)(F)F)c3)n2)cc(OC)c1OC [Compound 617]
6. COc1ccc(Nc2ncnc(-n3c(N)nc4ccccc43)n2)cn1 [Compound 648]
7. COc1cc(Nc2ncnc(Nc3cc(-c4ccc(C(=O)O)cc4)n[nH]3)n2)cc(OC)c1OC [Compound 1004]

1: 5.01 to 7.3 µM; 2: 0.935 to 5.61 µM; 3: < 0.78 µM; 4: > 9.03 µM; 5: 0.836 to 5.02 µM; 6: > 13.5 µM; 7: < 0.863 µM
